The measurements presented in this section are drawn from the supplement of paper PMC9112550.

System: Escherichia coli TOP10;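 note: peptides expressed intracellularly from a pBAD plasmid library in pooled LB shake-flask culture, induced with 0.3% L-arabinose, DNA abundance read by NGS, three biological replicates, DESeq2 with apeglm shrinkage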
Assay: shrunken log2 fold change of peptide-encoding DNA abundance (4.5 h post-induction vs induction); higher = less antimicrobial activity (less host growth inhibition)
Conditions: time post-induction: 4.5 h; library: site-saturation at positions 5, 18, 19, 20

[
  {
    "Residue String": "RRIRIRPPRLPRPRPRPAGMPRP",
    "shrunken log2 fold change": -0.0321
  },
  {
    "Residue String": "RRIRTRPPRLPRPRPRPRIHPRP",
    "shrunken log2 fold change": 0.0773
  },
  {
    "Residue String": "RRIRLRPPRLPRPRPRPPPLPRP",
    "shrunken log2 fold change": 1.12
  },
  {
    "Residue String": "RRIRYRPPRLPRPRPRPFNTPRP",
    "shrunken log2 fold change": -0.468
  },
  {
    "Residue String": "RRIRSRPPRLPRPRPRPWSQPRP",
    "shrunken log2 fold change": -0.00693
  },
  {
    "Residue String": "RRIRFRPPRLPRPRPRPLWKPRP",
    "shrunken log2 fold change": -0.0606
  },
  {
    "Residue String": "RRIRYRPPRLPRPRPRPMGDPRP",
    "shrunken log2 fold change": -0.0018
  },
  {
    "Residue String": "RRIRYRPPRLPRPRPRPSRAPRP",
    "shrunken log2 fold change": -0.113
  },
  {
    "Residue String": "RRIRARPPRLPRPRPRPAMLPRP",
    "shrunken log2 fold change": 0.226
  },
  {
    "Residue String": "RRIRKRPPRLPRPRPRPYGEPRP",
    "shrunken log2 fold change": 0.0585
  },
  {
    "Residue String": "RRIRERPPRLPRPRPRPLDHPRP",
    "shrunken log2 fold change": -0.155
  },
  {
    "Residue String": "RRIRRRPPRLPRPRPRPEDAPRP",
    "shrunken log2 fold change": 0.582
  },
  {
    "Residue String": "RRIRQRPPRLPRPRPRPVKRPRP",
    "shrunken log2 fold change": 0.103
  },
  {
    "Residue String": "RRIRDRPPRLPRPRPRPTDCPRP",
    "shrunken log2 fold change": 0.00372
  },
  {
    "Residue String": "RRIRRRPPRLPRPRPRPLMCPRP",
    "shrunken log2 fold change": -0.13
  },
  {
    "Residue String": "RRIRHRPPRLPRPRPRPNSNPRP",
    "shrunken log2 fold change": -1.16
  },
  {
    "Residue String": "RRIRDRPPRLPRPRPRPEAMPRP",
    "shrunken log2 fold change": -0.00943
  },
  {
    "Residue String": "RRIRIRPPRLPRPRPRPPNLPRP",
    "shrunken log2 fold change": -0.188
  },
  {
    "Residue String": "RRIRKRPPRLPRPRPRPSDFPRP",
    "shrunken log2 fold change": -0.00266
  },
  {
    "Residue String": "RRIRYRPPRLPRPRPRPRDWPRP",
    "shrunken log2 fold change": 0.0703
  },
  {
    "Residue String": "RRIRSRPPRLPRPRPRPLLFPRP",
    "shrunken log2 fold change": -0.129
  },
  {
    "Residue String": "RRIRVRPPRLPRPRPRPTREPRP",
    "shrunken log2 fold change": 0.59
  },
  {
    "Residue String": "RRIRNRPPRLPRPRPRPILWPRP",
    "shrunken log2 fold change": 0.123
  },
  {
    "Residue String": "RRIRFRPPRLPRPRPRPNCVPRP",
    "shrunken log2 fold change": -0.321
  },
  {
    "Residue String": "RRIRERPPRLPRPRPRPSYHPRP",
    "shrunken log2 fold change": -0.66
  },
  {
    "Residue String": "RRIRARPPRLPRPRPRPEWVPRP",
    "shrunken log2 fold change": 0.775
  },
  {
    "Residue String": "RRIRMRPPRLPRPRPRPFQMPRP",
    "shrunken log2 fold change": -0.323
  },
  {
    "Residue String": "RRIRCRPPRLPRPRPRPNWYPRP",
    "shrunken log2 fold change": 0.09
  },
  {
    "Residue String": "RRIRIRPPRLPRPRPRPERWPRP",
    "shrunken log2 fold change": 1.8
  },
  {
    "Residue String": "RRIRTRPPRLPRPRPRPAPTPRP",
    "shrunken log2 fold change": 0.0808
  },
  {
    "Residue String": "RRIRGRPPRLPRPRPRPSANPRP",
    "shrunken log2 fold change": 0.858
  },
  {
    "Residue String": "RRIRWRPPRLPRPRPRPRNEPRP",
    "shrunken log2 fold change": 1.32
  },
  {
    "Residue String": "RRIRSRPPRLPRPRPRPFKTPRP",
    "shrunken log2 fold change": -0.0323
  },
  {
    "Residue String": "RRIRTRPPRLPRPRPRPEYWPRP",
    "shrunken log2 fold change": -0.00483
  },
  {
    "Residue String": "RRIRDRPPRLPRPRPRPPTLPRP",
    "shrunken log2 fold change": -0.0573
  },
  {
    "Residue String": "RRIRKRPPRLPRPRPRPHSLPRP",
    "shrunken log2 fold change": 0.0727
  },
  {
    "Residue String": "RRIRWRPPRLPRPRPRPMYMPRP",
    "shrunken log2 fold change": 0.0903
  },
  {
    "Residue String": "RRIRNRPPRLPRPRPRPSWGPRP",
    "shrunken log2 fold change": -0.139
  },
  {
    "Residue String": "RRIRHRPPRLPRPRPRPPDLPRP",
    "shrunken log2 fold change": 0.0765
  },
  {
    "Residue String": "RRIRARPPRLPRPRPRPSPLPRP",
    "shrunken log2 fold change": 0.238
  },
  {
    "Residue String": "RRIRCRPPRLPRPRPRPHYVPRP",
    "shrunken log2 fold change": -0.78
  },
  {
    "Residue String": "RRIRPRPPRLPRPRPRPCFPPRP",
    "shrunken log2 fold change": -0.0413
  },
  {
    "Residue String": "RRIRYRPPRLPRPRPRPGTQPRP",
    "shrunken log2 fold change": -0.141
  },
  {
    "Residue String": "RRIRTRPPRLPRPRPRPRQGPRP",
    "shrunken log2 fold change": 0.337
  },
  {
    "Residue String": "RRIRQRPPRLPRPRPRPHINPRP",
    "shrunken log2 fold change": -0.921
  },
  {
    "Residue String": "RRIRNRPPRLPRPRPRPMGAPRP",
    "shrunken log2 fold change": 0.115
  },
  {
    "Residue String": "RRIRQRPPRLPRPRPRPMYFPRP",
    "shrunken log2 fold change": -0.448
  }
]
